So I've got a bunch of compounds here, and I need their TGI values.
- Test system: EKVX NSCLC
- TEST: NCI tumour cell line growth inhibition, 48 h

Exercise: Any idea what its TGI is? The compound is C#CCOC(=O)C(N)CS (stereo unspecified)
Key: > 100 µM

Exercise: Any idea what its TGI is? The compound is CC1(C)OC(=O)C=C(O)O1.CC1(C)OC(=O)C=C(O)O1.CCO.Oc1ccc2c(c1)CCC2.[Ti]
Key: > 100 µM

Exercise: Any idea what its TGI is? The compound is CCN(CC)CCN1CCN=c2c3cc(OC)ccc3n3cnc4ccc1c2c43
Key: 3.21 µM

Exercise: Any idea what its TGI is? The compound is CCOP(=O)(CCC(O)CNc1nc(N)nc(Cl)c1N=Nc1ccc(Cl)cc1)OCC (stereo unspecified)
Key: 40.6 µM

Exercise: Any idea what its TGI is? The compound is Cc1nc(Nc2ccccc2)sc1C(=O)NNC(N)=O
Key: > 100 µM

Exercise: Any idea what its TGI is? The compound is O=c1oc2ccccc2c(O)c1C(c1ccc2ccccc2c1)c1c(O)c2ccccc2oc1=O
Key: > 100 µM

Exercise: Any idea what its TGI is? The compound is NC(=O)CC1(O)C=CC(=O)C=C1
Key: > 100 µM

Exercise: Any idea what its TGI is? The compound is C=CCNC(NCC=C)=C(C(Cl)=C(Cl)Cl)[N+](=O)[O-]
Key: > 100 µM

Exercise: Any idea what its TGI is? The compound is Nc1ccccc1C(=O)NNC(=O)c1ccccc1N
Key: > 100 µM

Exercise: Any idea what its TGI is? The compound is O=C1c2scnc2-c2nccc3c2c1nc1ccccc13
Key: > 20.2 µM

Exercise: Any idea what its TGI is? The compound is O=C(c1cccs1)c1c(C(F)(F)F)n([O-])c2cc(C(F)(F)F)ccc2[n+]1=O
Key: 0.625 µM

====

- System: SK-OV-3 ovarian
- TEST: NCI tumour cell line growth inhibition, 48 h
So I've got a bunch of compounds here, and I need their TGI values.
Dear colleague, please return just the value in µM, with no unit written.

Exercise: Any idea what its TGI is? The compound is O=C(c1cccs1)c1c(C(F)(F)F)n([O-])c2cc(C(F)(F)F)ccc2[n+]1=O
Key: 1.87

Exercise: Any idea what its TGI is? The compound is CCC[CH2][Sn]([CH2]CCC)([O]C(=O)c1cccc(F)c1F)[O][Sn]([CH2]CCC)([CH2]CCC)[O]C(=O)c1cccc(F)c1F
Key: 2.23

Exercise: Any idea what its TGI is? The compound is CCOC(=O)c1c(-c2ccc(Cl)cc2)c(C#N)c(=S)n(C2OC(CO)C(O)C(O)C2O)c1-c1ccccc1 (centres undefined)
Key: 96.2

Exercise: Any idea what its TGI is? The compound is COc1ccc2c(c1)-c1c(c3ccccc3n1CCN1CCCCC1)CC2
Key: 53

====

- Test system: HCC-2998 colon
- TEST: NCI tumour cell line growth inhibition, 48 h
*1 amine or outer side, *2 acyl side, *3 side chain or, on linkers, in order; H or OH if unused. Where a SMILES comes first, the peptide text is derived from it. CO = O=C([*:1])[*:2]
MEASURED_PARAMETER: GI50

Exercise: Query for HCC-2998 colon: what GI50 does the record show for C[C@@H](Oc1cc(-c2cnn(C3CC4(CCNCC4)C3)c2)cnc1N)c1c(F)ccc(Cl)c1Cl ?
Key: 1.42 µM

Exercise: Query for HCC-2998 colon: what GI50 does the record show for Cc1cc(Nc2nc(N3CCOCC3)nc3ccccc23)n[nH]1 ?
Key: 24.8 µM

Exercise: Query for HCC-2998 colon: what GI50 does the record show for COc1ccc2c(c1)C(=O)c1c-2c(N2CCN(C(=O)CN(C)C)CC2)nc2ccccc12 ?
Key: 15.2 µM

Exercise: Query for HCC-2998 colon: what GI50 does the record show for O=C1CN2CCC1C/C2=C\c1ccnc2c(Cl)cccc12 (stereo not drawn) ?
Key: > 100 µM

Exercise: Query for HCC-2998 colon: what GI50 does the record show for COc1cc2c3c(n(CCCn4ccnc4)c(=O)c2cc1OC)-c1ccccc1C3=O ?
Key: 0.0598 µM

Exercise: Query for HCC-2998 colon: what GI50 does the record show for Cn1c(Cc2ccccc2)nc2cc3ccccc3cc21 ?
Key: 22.8 µM

Exercise: Query for HCC-2998 colon: what GI50 does the record show for O=C(Nc1cccc(-c2nc3ccccc3[nH]2)c1)c1cccc(NC(=O)c2ccco2)c1 ?
Key: 10 µM

Exercise: Query for HCC-2998 colon: what GI50 does the record show for Cc1cc(Nc2ncc(Cl)c(Nc3ccccc3S(=O)(=O)C(C)C)n2)c(OC(C)C)cc1C1CCNCC1 ?
Key: 0.991 µM

Exercise: Query for HCC-2998 colon: what GI50 does the record show for C=C1C(=O)O[C@H]2[C@H]1CC/C(COC(=O)N[C@@H](Cc1c[nH]c3ccccc13)C(=O)OC)=C\CC[C@@]1(C)O[C@@H]21 ?
Key: 1.95 µM

Exercise: Query for HCC-2998 colon: what GI50 does the record show for COc1cc(-c2ccc(-[n+]3nc(-c4ccc([N+](=O)[O-])cc4)nn3-c3ccc([N+](=O)[O-])cc3)c(OC)c2)ccc1-[n+]1nc(-c2ccc([N+](=O)[O-])cc2)nn1-c1ccc([N+](=O)[O-])cc1 ?
Key: 9.21 µM

Exercise: Query for HCC-2998 colon: what GI50 does the record show for CCC[CH2][Sn]([CH2]CCC)([O]C(=O)c1cccc(F)c1F)[O][Sn]([CH2]CCC)([CH2]CCC)[O]C(=O)c1cccc(F)c1F ?
Key: 0.617 µM

Exercise: Query for HCC-2998 colon: what GI50 does the record show for CN1CCN(Cc2ccc(NC(=O)c3[nH]ncc3Nc3ccnc4ccsc34)cc2)CC1 ?
Key: 2.75 µM

Exercise: Query for HCC-2998 colon: what GI50 does the record show for CC(=O)O[C@H]1C(=O)[C@@]2(C)[C@H]([C@H](OC(=O)c3ccccc3)[C@]3(O)C[C@H](OC(=O)[C@H](OC(=O)CCC(=O)OC4CCC(S/N=C(N)/N=C(\N)N(C)C)CC4)[C@@H](NC(=O)c4ccccc4)c4ccccc4)C(C)=C1C3(C)C)[C@]1(OC(C)=O)CO[C@@H]1C[C@@H]2O (stereo partly drawn) ?
Key: 0.0147 µM

Exercise: Query for HCC-2998 colon: what GI50 does the record show for O=C(/C=C/c1ccc2c(c1)OCO2)c1ccccc1 ?
Key: 16 µM

Exercise: Query for HCC-2998 colon: what GI50 does the record show for CC1=C([Se]CC(OC(=O)[C@@H](CSSC(C)(C)C)NC(=O)C(C)(C)C)C(=O)NCCCCCC(=O)OCc2ccccc2)C(=O)c2ccccc2C1=O (stereo partly drawn) ?
Key: 2.2 µM

Exercise: Query for HCC-2998 colon: what GI50 does the record show for C/C(=C\c1csc(C)n1)[C@@H]1C[C@@H]2O[C@]2(C)CCC[C@H](C)[C@H](O)[C@@H](C)C(=O)C(C)(C)[C@@H](O)CC(=O)O1 (tested in a mixture with another compound) ?
Key: 0.00305 µM

Exercise: Query for HCC-2998 colon: what GI50 does the record show for CCN(CC)CCCC(C)N/C(c1cccc(OC)c1)=c1\c(=O)[nH]n(-c2c3ccccc3nc3ccccc23)c(=O)\c1=C(/NC(C)CCCN(CC)CC)c1cccc(OC)c1 (stereo not drawn) ?
Key: 1.44 µM

Exercise: Query for HCC-2998 colon: what GI50 does the record show for CC(C)C(NC(=O)C(CCCN=C(N)N)NC(=O)NC(Cc1ccccc1)C(=O)O)C(=O)NC(C=O)CCCN=C(N)N (stereo not drawn) ({Phe-CO}-Arg-Val-Arg-aldehyde; configuration not given here) ?
Key: 0.0202 µM

Exercise: Query for HCC-2998 colon: what GI50 does the record show for CCN(CC)CCCN1C(=O)c2c(c(C)c3c(oc4cc(O)ccc43)c2C)C1=O ?
Key: 1.78 µM

Exercise: Query for HCC-2998 colon: what GI50 does the record show for N#C/C(=C\c1ccc(Cl)cc1)n1nnc2cc(F)c(F)cc21 ?
Key: 1.74 µM

Exercise: Query for HCC-2998 colon: what GI50 does the record show for Cc1cc(S(=O)(=O)/N=C(\N)n2nc(C)c(C)c2C)c(SCc2ccccc2)cc1Cl ?
Key: > 100 µM

Exercise: Query for HCC-2998 colon: what GI50 does the record show for CCSc1nc(=S)[nH]c2[nH]ncc12 ?
Key: 59.1 µM

Exercise: Query for HCC-2998 colon: what GI50 does the record show for Nc1c(C(=O)Nc2cccc3ccccc23)sc2nc3c(cc12)CCCCC3 ?
Key: 2.41 µM
